Below: a set of entries, each annotated with reported Kp uu.
# assaySummary: Ratio of unbound drug concentration in brain to plasma of rat
# Assay type: ADME, cell-free
# runConditions: brain and plasma (unbound), read-out: K(p,uu,brain)
observationType: Kp uu

compound: CCc1nc2ccc(CN3CCN(c4ccc(F)nc4C)CC3)cc2[nH]c1=O
modifier: =
numericResult: 0.36

compound: CNC(=O)c1ccc(N2CCN(Cc3ccc4nc(C)c(=O)[nH]c4c3F)CC2)c(F)n1 [AZD-9574]
modifier: =
numericResult: 0.31

compound: CCc1nc2ccc(CN3CCN(c4ccc(C(=O)NC)nc4)CC3)cc2[nH]c1=O
modifier: =
numericResult: 0.05

compound: NC(=O)c1cccc2cn(-c3ccc([C@@H]4CCCNC4)cc3)nc12 [NIRAPARIB]
modifier: <
numericResult: 0.1

compound: CCc1cc2ncc(CN3CCN(c4ccc(C(=O)NC)nc4)CC3)cc2[nH]c1=O [SARUPARIB]
modifier: <
numericResult: 0.1

compound: CCc1nc2ccc(CN3CCN(c4ccc(C(=O)NC)nc4F)CC3)cc2[nH]c1=O
modifier: =
numericResult: 0.1

compound: CNCc1ccc(-c2[nH]c3cc(F)cc4c3c2CCNC4=O)cc1 [RUCAPARIB]
modifier: <
numericResult: 0.1

compound: Cn1ncnc1[C@H]1c2n[nH]c(=O)c3cc(F)cc(c23)N[C@@H]1c1ccc(F)cc1 [TALAZOPARIB]
modifier: <
numericResult: 0.1

compound: O=C(c1cc(Cc2n[nH]c(=O)c3ccccc23)ccc1F)N1CCN(C(=O)C2CC2)CC1 [OLAPARIB]
modifier: <
numericResult: 0.1

compound: CCc1nc2ccc(CN3CCN(c4cnc(F)cc4C)CC3)cc2[nH]c1=O
modifier: =
numericResult: 0.2

compound: CNC(=O)c1ccc(N2CCN(Cc3ccc4nc(C)c(=O)[nH]c4c3F)CC2)c(C)n1
modifier: =
numericResult: 0.19

compound: CCc1cc2ccc(CN3CCN(c4ccc(C(=O)NC)nc4)CC3)cc2[nH]c1=O
modifier: =
numericResult: 0.1

compound: C[C@]12CCCN1CC1=NNC(=O)c3cc(F)cc4[nH]c2c1c34 [PAMIPARIB]
modifier: =
numericResult: 0.1

compound: C[C@]1(c2nc3c(C(N)=O)cccc3[nH]2)CCCN1 [VELIPARIB]
modifier: =
numericResult: 0.19

Where these numbers come from: ChEMBL document CHEMBL6078698
